test system: BDF1 mice, P388 leukemia ip, median survival T/C; test: NCI In Vivo Anticancer Drug Screen. Data for tumor model P388 Leukemia (intraperitoneal) in B6D2F1 (BDF1) mice; conditions: endpoint: median survival time; dose: 400.0 mg/kg/injection; schedule: Q04DX003 (ip); vehicle: saline with Tween-80
Inconclusive results and toxic doses are left out. The calls were made as follows: active = survival T/C of 150% or more; inactive = T/C below 125% in these data.
Please reply with one of these outcomes: 1.0 = active, 0.0 = inactive

Some solved cases for reference:
[[record]]
compound = "CS(=O)(=O)OCC(=O)NCC(O)CNC(=O)COS(C)(=O)=O"
class = 1.0

[[record]]
compound = "Cc1ccc(C(=O)NCCCOc2ccc(N)cc2Cl)cc1S(=O)(=O)F"
class = 0.0


Task: # outcome recorded in this test, key = `O=C(CNC(c1ccccc1)(c1ccccc1)c1ccccc1)OC(c1ccccc1)c1ccccc1`
Result: 0.0

Task: # outcome recorded in this test, key = CCOC(=O)CCC(=O)CC(O)(C(F)(F)F)C(F)(F)Cl (centres undefined)
Result: 0.0

Task: # outcome recorded in this test, key = COC1(c2ccc([N+](=O)[O-])o2)OC1(C)C (centres undefined)
Result: 0.0

Task: # outcome recorded in this test, key = `COC(=O)[C@@H](C)[C@@H](O)[C@@H](C)N`
Result: 0.0

Task: # outcome recorded in this test, key = `COC(=O)/C=C(\C)Oc1cc(Cl)c(Cl)cc1Cl`
Result: 0.0

Task: # outcome recorded in this test, key = `O=c1n(CCCl)c(=O)n(CCCl)c(=O)n1CCCl`
Result: 0.0

Task: # outcome recorded in this test, key = `COc1cc(/C=N/NC(=O)c2cccs2)cc(OC)c1OC`
Result: 0.0
